# Test system: K-562 leukemia
# run-description: NCI-60 one-dose screen, 48 h (100 = growth as untreated, 0 = no growth, -100 = all killed)
# details: 10 µM unless noted
The panel holds about 83,000 compounds, 20% with a hit somewhere; the sample as a whole holds those more often.
Measured growth, listed per entry.

{"compound": "COc1cccc(-c2nc3sccn3c2-c2ccnc(NCCNS(=O)(=O)c3cccc(F)c3)c2)c1", "measured-target": "K-562 leukemia", "growth / %": 19}
{"compound": "Cc1c(Cl)cc(-n2c(=O)c3ccccc3c3ccccc3c2=O)cc1Cl", "measured-target": "K-562 leukemia", "growth / %": 106}
{"compound": "CCCCOc1nc2ccccc2cc1C1CNC(=O)c2ccccc2N1 (stereo not given)", "measured-target": "K-562 leukemia", "growth / %": 12.8}
{"compound": "Nc1ccc2c(c1)c(N)nn2C(=O)Nc1ccc(Cc2ccccc2)cc1", "measured-target": "K-562 leukemia", "growth / %": -5.66}
{"compound": "CCC(CO)Nc1nc2ccc(Cl)cc2c2ccccc12 (stereo not given)", "measured-target": "K-562 leukemia", "growth / %": 38.2}
{"compound": "O=C(NCCCNc1cc(-c2cn(-c3ccccc3)nc2-c2cccc(O)c2)ccn1)c1cccc(O)c1", "measured-target": "K-562 leukemia", "growth / %": 7.59}
{"compound": "NC(N)=NN=C(c1ccccc1)c1ccccc1", "measured-target": "K-562 leukemia", "growth / %": 21.7}
{"compound": "CC(C)(C)c1ccc(/C=C/C(=O)Nc2ccc(O)cc2)cc1", "measured-target": "K-562 leukemia", "growth / %": 4.2}
{"compound": "Cc1cc(NCCCCNc2ccnc3cc(Cl)ccc23)nc(Nc2ccc(C(=O)N3CCCC3)cc2)n1", "measured-target": "K-562 leukemia", "growth / %": -24.6}
{"compound": "CC/C=C/C/C=C/C/C=C/C/C=C/C/C=C/C/C=C/CCC(=O)Nc1ccn([C@@H]2O[C@H](CO)[C@@H](O)C2(F)F)c(=O)n1", "measured-target": "K-562 leukemia", "growth / %": 38.4}

* * *

// reported growth for each item listed
# Test system: KM12 colon
# run-description: NCI-60 one-dose screen, 48 h (100 = growth as untreated, 0 = no growth, -100 = all killed)
# details: 10 µM unless noted
The panel holds about 83,000 compounds, 20% with a hit somewhere; the sample as a whole holds those more often.

{"compound": "CC(C)CCC[C@@H](C)[C@H]1CC[C@H]2[C@@H](Nc3ccc(O)cc3)CCC[C@]12C", "measured-target": "KM12 colon", "growth, %": 87.9}
{"compound": "COc1ccc(-c2nc(SCC(=O)Nc3nc(-c4ccccc4)cs3)[nH]c(=O)c2C#N)cc1", "measured-target": "KM12 colon", "growth, %": 108}
{"compound": "CC(=O)O[C@]1(C(C)=O)CCC2C3C[C@H](C)C4=CC(=O)CC[C@]4(C)C3CC[C@@]21C (stereo partly specified)", "measured-target": "KM12 colon", "growth, %": 103}
{"compound": "Cc1c(O)cc(-c2cnc(N/N=C\\c3ccc(Cl)cc3)s2)c(O)c1C", "measured-target": "KM12 colon", "growth, %": 86.5}
{"compound": "N#Cc1c(-c2ccccn2)[nH]c(=S)[nH]c1=O", "measured-target": "KM12 colon", "growth, %": 102}
{"compound": "COC(=O)/C=C1\\S/C(=N\\NS(=O)(=O)c2ccc(C)cc2)N(c2ccccc2)C1=O", "measured-target": "KM12 colon", "growth, %": 101}
{"compound": "CNS(=O)(=O)c1n[nH]nc1-c1cc(C(C)(C)C)c(O)c(C(C)(C)C)c1", "measured-target": "KM12 colon", "growth, %": 105}
{"compound": "Cc1ccc2nc3ccccc3c(NCc3ccccc3)c2c1", "measured-target": "KM12 colon", "growth, %": 56.3}
{"compound": "CN(C)CCCn1c(=O)c2ccccc2c2ccccc21", "measured-target": "KM12 colon", "growth, %": 75.8}
{"compound": "CCc1ccccc1-n1c(N)c(C#N)c(-c2ccc(N(C)C)cc2)c(C#N)c1=O", "measured-target": "KM12 colon", "growth, %": 97.6}
{"compound": "COc1ccc2c(c1)C(=O)/C(=C/c1cccc(OCC(=O)Nc3nc(C)c(C)s3)c1)O2", "measured-target": "KM12 colon", "growth, %": 9.4}
{"compound": "CN(C)CCC=C1c2ccccc2C(C)(C)c2ccccc21", "measured-target": "KM12 colon", "growth, %": 76.9}
{"compound": "COc1cccc(C(=O)NCCCNc2cc(-c3cn(-c4ccccc4)nc3-c3cccc(OC)c3)ccn2)c1", "measured-target": "KM12 colon", "growth, %": 43.5}
{"compound": "COc1ccc2c(c1)O/C(=C/c1ccc(OCC(=O)c3ccccc3)cc1)C2=O", "measured-target": "KM12 colon", "growth, %": 105}
{"compound": "COc1cc(/C=N/NC(=O)Cn2c(C(C)C)nc3ccccc32)ccc1O", "measured-target": "KM12 colon", "growth, %": 97.6}
{"compound": "N#Cc1nc(C#N)c(Sc2ccccc2)c(Sc2ccccc2)c1Sc1ccccc1", "measured-target": "KM12 colon", "growth, %": -85.2}
{"compound": "CCCCCS(=O)(=O)Nc1ccc(C(=O)O)cc1", "measured-target": "KM12 colon", "growth, %": 103}
{"compound": "COc1ccc(C2=NN(C(=O)c3cc(OC)c(OC)c(OC)c3)C(c3ccc(Cl)cc3)C2)cc1OC (stereo unspecified)", "measured-target": "KM12 colon", "growth, %": 15.9}
{"compound": "O=C(NCCc1ccc(O)c(O)c1)C12CC3CC(CC(C3)C1)C2", "measured-target": "KM12 colon", "growth, %": 117}
{"compound": "COc1cc(/C=N/Nc2ncc(-c3cc4cc5c(cc4o3)OCO5)s2)cc(OC)c1OC", "measured-target": "KM12 colon", "growth, %": 23.5}
{"compound": "O=C(O)C1CCC(=O)N1C(=O)OCc1ccccc1 (stereo unspecified)", "measured-target": "KM12 colon", "growth, %": 115}

* * *

# Test system: UO-31 renal
# run-description: NCI-60 one-dose screen, 48 h (100 = growth as untreated, 0 = no growth, -100 = all killed)
# details: 10 µM unless noted
About 83,000 compounds went through this panel and 20% of them were active in at least one assay; those are over-represented in the sample as a whole.

{"compound": "COc1ccc2[nH]c(O)c(C(=Nc3ccc(N(C)C(=O)CN4CCN(C)CC4)cc3)c3ccccc3)c2c1", "growth / %": 18.8}
{"compound": "O=c1cc(C2NNC(=S)N2)c2ccc3ccccc3c2o1 (centres undefined)", "growth / %": 70.6}
{"compound": "CCN(CC)CCCCCCNc1cc(OC)c(Cl)c2cccnc12", "growth / %": 51.8}
{"compound": "COC(=O)[C@]12CC[C@@H](C)[C@H](C)[C@@H]1C1=CC[C@@H]3[C@@]4(C)C(C=O)=C[C@@](C)(COC(=O)c5ccco5)C4=CC[C@@]3(C)[C@]1(C)CC2", "growth / %": -55.3}
{"compound": "COc1cccc(-c2nn(-c3ccccc3)cc2-c2ccnc(NCCNC(=O)Nc3ccccc3)c2)c1", "growth / %": 39}
{"compound": "CCCCCCN(CCCCCC)c1ccc(/C=C2/SC(=O)N(c3nc(N4CCCC4)nc(N4CCCC4)n3)C2=O)c(C)c1", "growth / %": 52.9}
{"compound": "COc1cccc(-c2nn(-c3ccccc3)cc2-c2ccnc(NCCNC(=O)c3ccccc3)c2)c1", "growth / %": 49.7}
{"compound": "Cc1ccc(C(=NN=C(N)N)c2ccc(C)cc2)cc1", "growth / %": 21}
{"compound": "Cn1c(=O)c2[nH]c(NN)nc2n(C)c1=O", "growth / %": 90.8}

* * *

# Tested on: IGROV1 ovarian
# run-description: NCI-60 one-dose screen, 48 h (100 = growth as untreated, 0 = no growth, -100 = all killed)
# details: 10 µM unless noted
The panel holds about 83,000 compounds, 20% with a hit somewhere; the sample as a whole holds those more often.
Parameter threshold = 80%. Response is Met when growth meets or exceeds it, else Not met.

{"compound": "COc1ccc(C(=O)Nn2c(NCC(=O)N3c4ccccc4Sc4ccccc43)nnc2-c2ccc(O)cc2)cc1", "cat": "Met"}
{"compound": "O=C1/C(=C/c2ccccc2)CCc2nc3ccccc3c(/C=C/c3ccc(Cl)cc3)c21", "cat": "Not met"}
{"compound": "COc1cc(C2CC(=O)Nc3c2c(C)nn3-c2nc3ccccc3[nH]2)c(OC)c(OC)c1OC (stereo not given)", "cat": "Not met"}
{"compound": "Cc1occc1-c1n[nH]c(=S)n1N1C(=O)CSC1=S", "cat": "Met"}
{"compound": "COc1ccc(-c2nc(SCCC(C)C)nc(N/N=C\\c3cccc([N+](=O)[O-])c3)c2C#N)cc1", "cat": "Not met"}
{"compound": "Cc1c2c(c(C)c3c1oc1cc(O)ccc13)C(=O)N(CCN1CCCCC1)C2=O", "cat": "Met"}
{"compound": "Cc1cc(C)c(-c2c(C)cc(C)cc2CBr)c(CBr)c1", "cat": "Met"}
{"compound": "O=C(N/N=C/c1ccncc1)c1ccc(C(F)(F)F)nc1Nc1cccc(C(F)(F)F)c1", "cat": "Not met"}
{"compound": "c1coc(-c2c3ccc(=[N+]4CCCCC4)cc-3oc3cc(N4CCCCC4)ccc23)c1", "cat": "Not met"}
{"compound": "Cc1ccc(N2CCN(C(=S)c3cccs3)CC2)cc1", "cat": "Met"}
